Origin of measurements: PubChem BioAssay (NCI)

Test system: SR leukemia
measurement-protocol: NCI tumour cell line growth inhibition, 48 h; in the data active = GI50 below about 0.43 µM; inactive = the rest
Please state which outcome applies, choosing from active, inactive

In [3]: df
Out[3]:
                               given_smiles  class_assignment
0          NC(=S)N=Nc1c(O)c2ccccc2c2ccccc12          inactive
1  Cc1cnc(Nc2ccc(N3CCN(C)CC3)cc2)nc1Nc1ccc(Cl)c(NS(=O)(=O)C(C)(C)C)c1            active

Turning to the following compound.
Q: What was the test verdict on `O=C(NCc1ccco1)c1cccc(NC2=C(Cl)C(=O)N(Cc3ccccc3)C2=O)c1` ?
A: inactive

* * *

System: K-562 leukemia
measurement-protocol: NCI tumour cell line growth inhibition, 48 h
metric-name: TGI

Some solved entries appear below for comparison.
>>> df
                                   compound  readout_value
0      Nc1nc(=O)n([C@@H]2CS[C@H](CO)O2)cc1F       > 100 µM
1  Cc1cccc(NC(=O)/C=C/c2ccc([N+](=O)[O-])cc2)c1       > 100 µM
2   O=S(=O)(/N=C(\NO)Nc1ccc(Cl)cc1)c1ccccc1       > 100 µM
3  CCOC(=O)c1cnn2c3ccccc3n(S(=O)(=O)c3ccc(OC)cc3)c12       > 100 µM
4                   O=C1CCCCC/C1=C\c1ccccc1       > 100 µM
5                   NCCCCCCNCc1cccc2ccccc12        51.1 µM

Q: Give K-562 leukemia TGI for `Cn1c(=S)c2[nH]c(SCCN3C(=O)c4ccccc4C3=O)nc2n(C)c1=O`
A: > 100 µM

Q: Follow-up entry: `CC(C)(C)OC(=O)c1cccnc1/C=N/O`
A: > 100 µM

Q: Follow-up entry: `CCCC1(CCC)c2cc(/C=N\O)ccc2-c2ccc(-c3ccc(C(C)(C)C)cc3)cc21`
A: > 100 µM

* * *

Tested on: T-47D breast
measurement-protocol: NCI tumour cell line growth inhibition, 48 h
metric-name: TGI

                                   molecule  metric_name  readout_value
0  COc1c2c(cc3c1C1(O)Cc4ccc5c(c4C[N+]1(C)CC3)OCO5)OCO2 (centres undefined)          TGI       > 100 µM
1  COc1ccc(Cn2cc3c(c2-c2ccccc2)CCc2cnoc2-3)cc1N          TGI       > 100 µM
2  COc1ccc2c(c[n+](C)c3c4cc5c(cc4ccc23)OCO5)c1OC          TGI       > 100 µM
3     Cc1cc(O)c(/C=N/C(=S)Nc2ccccc2)c(=O)o1          TGI       > 100 µM
4  CC1(C)CCCCCC(C)(CCCO)C1=O (centres undefined)          TGI       > 100 µM
5  COc1cccc2c1C(=O)OC2c1cccc2ccccc12 (centres undefined)          TGI       > 100 µM
6  CCCN1C(=O)/C(=C\c2ccc(OC)c(OC)c2)SC1=Nc1ccccc1          TGI       > 100 µM
7   Nc1nc(N)c2cc(Sc3cccc(C(F)(F)F)c3)ccc2n1          TGI         3.6 µM

Q: Looking for the measured TGI of `COP(=O)(OC)/C(=C/c1cn(C(c2ccccc2)(c2ccccc2)c2ccccc2)cn1)NC=O` , can you help?
A: > 100 µM

Q: Follow-up entry: `NC(=Nc1ccc(N)cc1)C(N)=Nc1ccc(N)cc1`
A: > 100 µM

* * *

System: SK-MEL-5 melanoma
measurement-protocol: NCI tumour cell line growth inhibition, 48 h
metric-name: TGI

>>> df
                                   compound             target  readout_value
0  CN1CCN(Cc2ccc3c(NNC(=O)c4ccccc4)nc4cc(F)ccc4n23)CC1  SK-MEL-5 melanoma        3.28 µM
1  COc1c2c(cc3c1C1(O)Cc4ccc5c(c4C[N+]1(C)CC3)OCO5)OCO2 (stereo not given)  SK-MEL-5 melanoma       > 100 µM
2      Nc1nc(=O)n([C@@H]2CS[C@H](CO)O2)cc1F  SK-MEL-5 melanoma       > 100 µM
3  CCCN(CCC)c1c([N+](=O)[O-])cc(C(=O)N(CCO)CCO)cc1[N+](=O)[O-]  SK-MEL-5 melanoma       > 100 µM
4  CCCC1(CCC)c2cc(/C=N\O)ccc2-c2ccc(-c3ccc(C(C)(C)C)cc3)cc21  SK-MEL-5 melanoma       > 100 µM

Q: Looking for the measured TGI of `CCOC(=O)c1cnn2c3ccccc3n(S(=O)(=O)c3ccc(OC)cc3)c12` , can you help?
A: 2.27 µM

Q: Follow-up entry: `NC(=Nc1cccc(Cl)c1)c1ccccc1N`
A: > 100 µM

Q: Follow-up entry: `O=C(Nc1ccccc1O)c1ccc(NS(=O)(=O)c2cccc3cccnc23)cc1`
A: 3.42 µM

Q: Follow-up entry: `Cc1cc(Nc2cc(N3CCN(C)CC3)nc(Sc3ccc(NC(=O)C4CC4)cc3)n2)n[nH]1`
A: > 10 µM

Q: Follow-up entry: `COC(=O)/C=c1\s/c(=C\C(=O)OC)c2ccccc12`
A: > 100 µM

* * *

Test system: UACC-62 melanoma
measurement-protocol: NCI tumour cell line growth inhibition, 48 h
metric-name: GI50

Some solved entries appear below for comparison.
In [3]: df
Out[3]:
                                   compound  readout_value
0  CNS(=O)(=O)OCC1OC(n2cnc3c(N)ncnc32)C(O)C1O (stereo not given)    > 100000 nM
1  CCOC(=O)c1ccc2c(c1)[n+](=O)c(C(C)=O)c(C(F)(F)F)n2[O-]        1490 nM
2  O=C(/C=C/C12c3ccccc3C(c3ccccc31)C1C(=O)NC(=O)C12)c1ccc(Cl)cc1 (stereo not given)        1400 nM

Q: Looking for the measured GI50 of `Cc1c(C(N)=O)sc2c1c(=O)n(Cc1ccccc1)c1nnc(-c3ccc(Br)cc3)n21` , can you help?
A: 1780 nM

Q: Follow-up entry: `CCS(=O)(=O)c1ccc(OC)c(Nc2ncc(-c3ccccc3Cl)o2)c1`
A: 11300 nM

* * *

Test system: UO-31 renal
measurement-protocol: NCI tumour cell line growth inhibition, 48 h; in the data active means GI50 below about 0.43 µM; inactive means the rest
Please state which outcome applies, choosing from t = active, f = inactive

>>> df
                               given_smiles  class_assignment
0  O=c1cc(-c2ccccc2)oc2cc(OC/C(=N/O)c3ccc(F)cc3)ccc12                 f

Q: What was the test verdict on `Nc1ccccc1C#C/C=C\C#Cc1c(F)c(F)c(F)c(F)c1F` ?
A: f

Q: Follow-up entry: `O=C(C[P+](c1ccccc1)(c1ccccc1)c1ccccc1)C[P+](c1ccccc1)(c1ccccc1)c1ccccc1`
A: t

Q: Follow-up entry: `CCS(=O)(=O)c1ccc(OC)c(Nc2ncc(-c3ccccc3Cl)o2)c1`
A: f

Q: Follow-up entry: `C[C@@H]1COCCN1c1cc(C2([S@@](C)(=N)=O)CC2)nc(-c2ccnc3[nH]ccc23)n1`
A: f

* * *

Test system: NCI-H226 lung
measurement-protocol: NCI tumour cell line growth inhibition, 48 h
Collected TGI values appear next to each entry.

Some solved entries appear below for comparison.
>>> print(df.to_string())
                                   molecule         target  readout_value
0  CCN(CC)c1ccc2cc(C(=O)Nc3ccc(C)cc3)c(=N)oc2c1  NCI-H226 lung       > 100 µM
1  NC(=O)c1c(NC=O)ncn1C1OCC(O)C(O)C1O (centres undefined)  NCI-H226 lung       > 100 µM
2  O=c1[nH]c(=O)n(C2CC(O)C(CO)O2)cc1C#Cc1ccc(F)cc1 (centres undefined)  NCI-H226 lung       > 100 µM

Q: Give NCI-H226 lung TGI for `CSc1c(CC(=O)Nc2ccc(Cl)cc2)n(Cc2ccccc2)c2ccccc12`
A: 71.8 µM

Q: Follow-up entry: `COc1ccccc1NCc1cccc2c(=O)c3ccc(Cl)cc3oc12`
A: > 100 µM

Q: Follow-up entry: `S=C=NCCc1ccccc1`
A: 2.88 µM

Q: Follow-up entry: `Cc1nc2sccn2c1C(=O)NC(=O)Nc1ccc(Cl)cc1`
A: > 100 µM

Q: Follow-up entry: `COc1ccc2nc3n(c2c1)C(=O)c1ccccc1-3`
A: > 100 µM

* * *

Test system: M14 melanoma
measurement-protocol: NCI tumour cell line growth inhibition, 48 h
metric-name: TGI

In [3]: df
Out[3]:
                            compound  readout_value
0  CC(=O)C(=[N+]=[N-])C(=O)N(C)CCC#N        > 10 µM

Q: Looking for the measured TGI of CC(=O)OC1CC[C@@]2(C)C(CC[C@]3(C)C2CC=C2[C@@H]4C(C)[C@H](C)CCC4(C)CCC23C)[C@@]1(C)C(=O)O (some centres not stated) , can you help?
A: 52.4 µM

Q: Follow-up entry: `Cc1ccc(-c2nc(-c3cn(C)c4ncccc34)cs2)cc1`
A: 8.18 µM

Q: Follow-up entry: `Cc1cccc(NC(=O)/C=C/c2ccc([N+](=O)[O-])cc2)c1`
A: > 59.4 µM

Q: Follow-up entry: `O=[N+]([O-])/C(C(Cl)=C(Cl)Cl)=C(\N1CCCCC1)n1nnc2ccccc21`
A: 32.5 µM

Q: Follow-up entry: `COc1ccccc1NS(=O)(=O)c1ccc2oc(SC(C)C)nc2c1`
A: > 100 µM

Q: Follow-up entry: `COc1ccc(C(=O)N/N=C/c2c(C)n(C)n(-c3ccccc3)c2=O)cc1`
A: > 100 µM

Q: Follow-up entry: C=CCOC(=O)C1CCC(=O)N1C(=O)C(Cl)Cl (configuration not stated)
A: > 100 µM
